Could you please report measured Anti-CD28 Fab (SEQ ID NOs: 696, 697) signal for the items listed next?
molecular target: T1, Anti-CD28 Fab (SEQ ID NOs: 696, 697); assay: phage binding ELISA; clonal phage on plate-captured biotinylated anti-CD28 Fab, anti-M13 HRP detection
T1 construct: In the phage ELISA the Fab was biotinylated and captured on neutravidin coated plates
T1 sequence (VH, as listed by the source, chain 1 of 2): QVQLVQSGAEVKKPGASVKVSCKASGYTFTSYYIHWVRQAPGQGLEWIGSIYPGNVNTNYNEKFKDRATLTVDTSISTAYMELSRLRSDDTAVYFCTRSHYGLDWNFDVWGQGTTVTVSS
T1 sequence (VL, as listed by the source, chain 2 of 2): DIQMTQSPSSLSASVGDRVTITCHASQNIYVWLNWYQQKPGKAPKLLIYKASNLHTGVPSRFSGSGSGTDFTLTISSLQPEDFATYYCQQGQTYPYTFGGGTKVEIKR
Form field (numeric): enter value without unit.

INPUT: Return the recorded Anti-CD28 Fab (SEQ ID NOs: 696, 697) signal value; entry: SCAAGATYEWPICL [Phage-1521 (Peptide-92 library sequence, SEQ ID NO: 1817)]
OUTPUT: 1.59

INPUT: Please report Anti-CD28 Fab (SEQ ID NOs: 696, 697) signal for the following binder: TCAAGATYPWPECM [Phage-1529 (Peptide-92 library sequence, SEQ ID NO: 1825)]
OUTPUT: 1.57

INPUT: Give the reported value of Anti-CD28 Fab (SEQ ID NOs: 696, 697) signal for this record: TCTAVFPYEWPRCL [Phage-1525 (Peptide-92 library sequence, SEQ ID NO: 1821)]
OUTPUT: 1.57

INPUT: Look up and state reported Anti-CD28 Fab (SEQ ID NOs: 696, 697) signal for WCAAGASYPWPWCL [Phage-1524 (Peptide-92 library sequence, SEQ ID NO: 1820)]
OUTPUT: 1.58

INPUT: Assign Anti-CD28 Fab (SEQ ID NOs: 696, 697) signal to the following record: SCAAGAPYPWPECL [Phage-1518 (Peptide-92 library sequence, SEQ ID NO: 1814)]
OUTPUT: 1.59

INPUT: Quote Anti-CD28 Fab (SEQ ID NOs: 696, 697) signal reported for TCSAGFSYKWPWCL [Phage-1527 (Peptide-92 library sequence, SEQ ID NO: 1823)] please.
OUTPUT: 1.57

Origin of the recorded values: patent US20260242478A1
